Parameter: MMAD. Scope: all listed entries.
protocolNotes: Particle size of the powders (AEROSIZER, SYMPATEC)
Assay type: physicochemical
measurementParameters: powder, AEROSIZER
Counter-ions that a name gives are not always drawn.
testReadout: MMAD (μm)

INSERT INTO measurements (molecule, testreadout, numericreadout) VALUES
  ('OCc1cc(C(O)CNCCCCCCOCCCCc2ccccc2)ccc1O (single isomer, unassigned) [salmeterol xinafoate sample C, salmeterol xinafoate]', 'MMAD', 1.1),
  ('CN1C[C@H](C(=O)N[C@]2(C)O[C@@]3(O)[C@@H]4CCCN4C(=O)[C@H](Cc4ccccc4)N3C2=O)C[C@@H]2c3cccc4[nH]cc(c34)C[C@H]21 [DHE SEDS® product, dihydroergotamine mesylate]', 'MMAD', 1.25),
  ('OCc1cc(C(O)CNCCCCCCOCCCCc2ccccc2)ccc1O (single isomer, unassigned) [salmeterol xinafoate sample A, Salmeterol xinafoate]', 'MMAD', 5.3),
  ('OCc1cc(C(O)CNCCCCCCOCCCCc2ccccc2)ccc1O (single isomer, unassigned) [salmeterol xinafoate sample B, salmeterol xinafoate]', 'MMAD', 1.6);
